# Tested on: CCRIS mutagenicity, Ames/micronucleus/aberration tests
# Assay Name: CCRIS mutagenicity studies
# Protocol Conditions: Test System: AMES SALMONELLA TYPHIMURIUM; Strain/Indicator: TA98; Metabolic Activation: NONE; Method: STANDARD PLATE
Active and inactive are the calls of the source. No rule for the calls is given here.
Labels: TRUE for active, FALSE for inactive

>>> cat("COC(=O)c1ccco1")
"FALSE"
>>> cat("CCOC(=O)C1OC1c1ccccc1 (configuration not stated)")
"FALSE"
>>> cat("N=C(N)c1ccc2cc(C(=N)N)[nH]c2c1")
"FALSE"
>>> cat("COc1cccc2c1C(=O)c1c(O)c3c(c(O)c1C2=O)C[C@@](O)(C(=O)CO)C[C@@H]3O[C@H]1C[C@H](N)C[C@H](C)O1")
"TRUE"
>>> cat("CC(C)=CC1C(C(=O)OCc2coc(Cc3ccccc3)c2)C1(C)C (configuration not stated)")
"FALSE"
>>> cat("O=C(O)CN(CCN(CC(=O)O)CC(=O)O)CC(=O)O")
"FALSE"
>>> cat("CCCCOC(=O)c1cccc2cccnc12")
"FALSE"
>>> cat("CC(CF)NCC(O)COc1cccc2[nH]c3ccccc3c12 (configuration not stated)")
"FALSE"
>>> cat("Nc1ccc2c(c1)Cc1cc(N)ccc1-2")
"TRUE"
>>> cat("CC(C)COC(=O)CCCCC(=O)OCC(C)C")
"FALSE"
>>> cat("CN(C)c1ccc(C(=N)c2ccc(N(C)C)cc2)cc1")
"FALSE"
>>> cat("COC(=O)c1cc2ccc3ccc[n+](C)c3c2[nH]1")
"FALSE"

* * *

# Tested on: CCRIS mutagenicity, Ames/micronucleus/aberration tests
# Assay Name: CCRIS mutagenicity studies
# Protocol Conditions: Test System: AMES SALMONELLA TYPHIMURIUM; Strain/Indicator: TA98(1,8-DNP6); Metabolic Activation: NONE; Method: PREINCUBATION
Activity calls are given as the source filed them. No rule for the calls is given here.
Quantity Name: mutagenic call

>>> value_reported("O=[N+]([O-])c1ccc2c(c1)Oc1cc([N+](=O)[O-])ccc1O2")
"active; positive"
>>> value_reported("O=[N+]([O-])c1cc(O)c2ccc3cccc4ccc1c2c34")
"active; positive"
>>> value_reported("O=[N+]([O-])c1ccc2c(c1)oc1ccc([N+](=O)[O-])cc12")
"active; positive"
>>> value_reported("O=[N+]([O-])c1cccc2c1oc1ccccc12")
"active; positive"
>>> value_reported("O=[N+]([O-])c1ccc2oc3ccccc3c2c1")
"active; positive"

* * *

# System: CCRIS mutagenicity, Ames/micronucleus/aberration tests
# Assay Name: CCRIS mutagenicity studies
# Protocol Conditions: Test System: AMES SALMONELLA TYPHIMURIUM; Strain/Indicator: TA100; Metabolic Activation: RAT, LIVER, S-9; Method: STANDARD PLATE
The source made the active and inactive calls. How the calls were made is not given here.
Labels: TRUE (active), FALSE (inactive)

>>> cat("O=[N+]([O-])c1cc([N+](=O)[O-])c2ccc3cccc4ccc1c2c43")
"TRUE"
>>> cat("Cc1ccc(N=Nc2c(O)ccc3ccccc23)c(C)c1")
"FALSE"
>>> cat("CC[C@H]1OC(=O)[C@H](C)[C@@H](O[C@H]2C[C@@](C)(OC)[C@@H](O)[C@H](C)O2)[C@H](C)[C@@H](O[C@@H]2O[C@H](C)C[C@H](N(C)C)[C@H]2O)[C@](C)(O)C[C@@H](C)CN(C)[C@H](C)[C@@H](O)[C@]1(C)O")
"FALSE"
>>> cat("CC(C)(S)[C@H](N)C(=O)O")
"TRUE"
>>> cat("c1ccc2nc3c(cc2c1)-c1cccc2cccc-3c12")
"FALSE"
>>> cat("O=C1c2ccccc2C(=O)N1SC(Cl)(Cl)Cl")
"TRUE"
>>> cat("COP(=O)(OC)Oc1ccc([N+](=O)[O-])c(C)c1")
"FALSE"
>>> cat("CCOC(N)=O")
"FALSE"
>>> cat("[O-]/[N+](=N\\O)c1ccccc1")
"FALSE"
>>> cat("O=[N+]([O-])c1c2ccccc2cc2ccccc12")
"FALSE"
>>> cat("C1O[C@@H]1[C@@H]1CO1")
"TRUE"

* * *

# Test system: CCRIS mutagenicity, Ames/micronucleus/aberration tests
# Assay Name: CCRIS mutagenicity studies
# Protocol Conditions: Test System: AMES SALMONELLA TYPHIMURIUM; Strain/Indicator: TA1535; Metabolic Activation: NONE; Method: PREINCUBATION
# Source text: The CCRIS database contains chemical records with carcinogenicity, mutagenicity, tumor promotion, and tumor inhibition test results. It was developed by the National Cancer Institute (NCI). Data are derived from studies cited in primary journals, current awareness tools, NCI reports, and other sources. Test results have been reviewed by experts in carcinogenesis and mutagenesis. CCRIS provides historical information from the years 1985 - 2011. It is no longer updated. […]
Calls of active or inactive are those of the source. The rule behind the calls is not given here.
Labels: yes (active), no (inactive)

>>> cat("Nc1n[nH]c(N)n1")
"no"
>>> cat("CNC(=O)ON=CC(C)(C)SC")
"no"
>>> cat("Nc1ccc(N)cc1")
"no"
>>> cat("CN1C(=O)CN=C(c2ccccc2)c2cc(Cl)ccc21")
"no"
>>> cat("COc1ccc(C=O)cc1")
"no"
>>> cat("c1ccc(N=NNc2ccccc2)cc1")
"no"
>>> cat("COc1cc(-c2ccc(N/N=C3\\C(=O)c4c(O)cc(S(=O)(=O)O)cc4C=C3S(=O)(=O)O)c(OC)c2)ccc1N/N=C1\\C(=O)c2c(O)cc(S(=O)(=O)O)cc2C=C1S(=O)(=O)O")
"no"
>>> cat("c1ccc(CCC2CO2)cc1 (stereo unspecified)")
"yes"
>>> cat("C1CCC2CCCCC2C1 (stereo unspecified)")
"no"
>>> cat("CCC(C(N)=O)(C(N)=O)c1ccccc1")
"no"
>>> cat("S=c1[nH]c2ccccc2[nH]1")
"no"
>>> cat("CCCCC(CC)COC(=O)C(C#N)=C(c1ccccc1)c1ccccc1 (stereo unspecified)")
"no"
>>> cat("OCCN1CN(CCO)CN(CCO)C1")
"no"
>>> cat("CCCCCCC=O")
"no"
>>> cat("O=Cc1ccccc1[N+](=O)[O-]")
"no"
>>> cat("CC(C)OCC1CO1 (stereo unspecified)")
"yes"
>>> cat("CCCCC(CC)COP(=O)(Oc1ccccc1)Oc1ccccc1 (stereo unspecified)")
"no"
>>> cat("CC(=O)OCCC(C)C")
"no"
>>> cat("CCCCCCCCCCCCOCCO")
"no"
>>> cat("CC(=O)Oc1cc(C=O)cc2c1C(COC(N)=O)C1(OC(C)=O)ON2CC2C1N2C(C)=O (stereo unspecified)")
"no"
>>> cat("Nc1ncn[nH]1")
"no"
>>> cat("C1O[C@@H]1[C@@H]1CO1")
"yes"
>>> cat("Oc1ccc(Cl)cc1Cl")
"no"
>>> cat("CCC(CO)[N+](=O)[O-] (stereo unspecified)")
"no"
>>> cat("COc1cc(OC)c(OC)cc1C=O")
"no"
>>> cat("COC(=O)CC(C)=O")
"no"
>>> cat("CC(=O)OCC(O)CO (stereo unspecified)")
"yes"
>>> cat("Cc1cccc(C)c1NC(=O)CN1CCCC1=O")
"no"
>>> cat("CNNC")
"no"
>>> cat("S=C(NC1CCCCC1)NC1CCCCC1")
"no"
>>> cat("N#CCBr")
"no"

* * *

# Tested on: CCRIS mutagenicity, Ames/micronucleus/aberration tests
# Assay Name: CCRIS mutagenicity studies
# Protocol Conditions: Test System: UDS HUMAN HEPATOCYTES; Strain/Indicator: THY INCORP; Metabolic Activation: NONE; Method: AUTORADIOGRAPHY
Activity calls are given as the source filed them. How the calls were made is not given here.
Labels: active, inactive

>>> cat("O=c1ccc2ccccc2o1")
"inactive"
>>> cat("CCCC=O")
"inactive"
>>> cat("Cl/C=C/CCl")
"active"
>>> cat("Cn1c(N)nc2ncc(-c3ccccc3)cc21")
"active"
>>> cat("Nc1cc2c3ccccc3ccc2c2ccccc12")
"active"

* * *

# System: CCRIS mutagenicity, Ames/micronucleus/aberration tests
# Assay Name: CCRIS mutagenicity studies
# Protocol Conditions: Test System: AMES SALMONELLA TYPHIMURIUM; Strain/Indicator: TA98; Metabolic Activation: NONE; Method: GAS EXPOSURE
The source made the active and inactive calls. The rule behind the calls is not given here.
Quantity Name: mutagenic call

>>> value_reported("FC(Cl)(Cl)Cl")
"inactive; negative"
>>> value_reported("C#CC")
"inactive; negative"
>>> value_reported("C=C(C)C")
"inactive; negative"

* * *

# Tested on: CCRIS mutagenicity, Ames/micronucleus/aberration tests
# Assay Name: CCRIS mutagenicity studies
# Protocol Conditions: Test System: AMES SALMONELLA TYPHIMURIUM; Strain/Indicator: TA98; Metabolic Activation: NONE; Method: STANDARD PLATE
The source made the active and inactive calls. The rule behind the calls is not given here.
Labels: Y (active), N (inactive)

>>> cat("C=C(C)C(=O)OCCOCCOC(=O)C(=C)C")
"N"
>>> cat("C[C@H](CCC(=O)NCCS(=O)(=O)O)[C@H]1CC[C@H]2[C@@H]3C[C@H](O)[C@@H]4C[C@H](O)CC[C@]4(C)[C@H]3CC[C@]12C")
"N"
>>> cat("COc1ccc2[nH]c3c(C)cc(N)c(C)c3c2c1")
"N"
>>> cat("O=C(c1ccccc1)C1OC1c1ccc([N+](=O)[O-])cc1 (stereo not given)")
"N"
>>> cat("C[C@@H]1O[C@@H](OC[C@H]2O[C@@H](Oc3c(-c4ccc(OCCO)c(OCCO)c4)oc4cc(OCCO)cc(O)c4c3=O)[C@H](O)[C@@H](O)[C@@H]2O)[C@H](O)[C@H](O)[C@H]1O")
"N"
>>> cat("CC(=O)Nc1ccc2c(c1)[nH]c1ccccc12")
"Y"
>>> cat("C=C1/C(=C\\C=C2/CCC[C@]3(C)[C@@H]([C@H](C)CC[C@@H](O)C(C)C)CC[C@@H]23)C[C@@H](O)C[C@@H]1O")
"N"
>>> cat("N#Cc1cccc(/C=C/c2ccc(N)cc2)c1")
"Y"
>>> cat("CC(=O)Nc1ccc(C(=O)[C@H]2O[C@H]2c2ccccc2)cc1")
"N"
>>> cat("O=C1NC(=O)C(c2ccccc2)(c2ccc(O)cc2)N1 (stereo not given)")
"N"

Where do the numbers come from? From PubChem BioAssay AID1259407.
